- Tested on: MCF-7 cells
- experiment: MTT assay for cytotoxicity, MCF-7 cells
- Type: cell-based, human
- protocolConditions: MCF-7 cells, 100 µM
List of anti-breast cancer activity (cytotoxicity) values.
Please state the figure in %; there is no need to write the unit.

compound | measuredTarget | resultNumber
COc1ccc(C2=NN(c3nc(-c4ccc(Br)cc4)cs3)C(c3cnc(-c4ccc(Cl)cc4)nc3)C2)cc1OC (stereo not shown) [BH-5] | MCF-7 cells | 39
COc1ccc(C2=NN(c3nc(-c4ccc(Cl)cc4)cs3)C(c3cnc(-c4ccc(Cl)cc4)nc3)C2)cc1OC (stereo not shown) [BH-4] | MCF-7 cells | 38
COc1ccc(C2=NN(C(N)=S)C(c3cnc(-c4ccc(Cl)cc4)nc3)C2)cc1OC (stereo not shown) [B-9] | MCF-7 cells | 33

[in] Any idea what anti-breast cancer activity (cytotoxicity) was measured for COc1ccc(C(=O)/C=C/c2cnc(-c3ccc(Cl)cc3)nc2)cc1OC [B-4] ?
[out] 70
